Value source: patent US8106055B2

- Tested System: human bradykinin 1 receptor (B1R) (Homo sapiens, UniProt P46663)
- Construct: expressed in transfected cells; host or cells: CHO K1 cells
- Sequence (P46663 whole entry): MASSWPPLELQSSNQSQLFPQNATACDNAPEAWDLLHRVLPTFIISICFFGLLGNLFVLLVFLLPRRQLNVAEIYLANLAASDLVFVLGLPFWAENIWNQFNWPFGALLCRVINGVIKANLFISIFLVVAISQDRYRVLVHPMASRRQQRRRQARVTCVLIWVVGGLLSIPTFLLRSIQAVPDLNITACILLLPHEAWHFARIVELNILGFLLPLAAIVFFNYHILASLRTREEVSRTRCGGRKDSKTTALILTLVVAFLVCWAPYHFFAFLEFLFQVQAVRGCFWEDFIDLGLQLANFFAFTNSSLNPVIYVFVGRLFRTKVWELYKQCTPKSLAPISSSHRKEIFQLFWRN
- Experiment Summary: Functional investigation on the human bradykinin 1 receptor (B1R), Ca2+ FLIPR assay in CHO K1 hB1R cells
- Format: cell-based
- Measurement Conditions: CHO-K1, B1R antagonism human; test substance 10 μM; Ca2+ FLIPR, CHO K1 hB1R cells; read-out: B1R Ant. h [10 μM] % Inhibition
Experimental Endpoint: inhibition at 10 µM (%)
Answers are plain numbers, in %.

The following compounds have reported results that may help.
Entry CCN(CCOCC(=O)NC1CCC(C(c2cccs2)N(C)C)CC1)S(=O)(=O)c1c(C)cc(OC)c(C)c1C (centres unmarked) : reported inhibition at 10 µM = ?
56

# get_value(readout='inhibition at 10 µM', item= COc1cc(C)c(S(=O)(=O)N(C)CCOCC(=O)NCC2CCC(C(c3cccs3)N(C)C)CC2)c(C)c1C (centres unmarked) )
50

What does the data say about its inhibition at 10 µM? Entry: CCN(CCOCC(=O)NC1CCC(C(c2cccc(F)c2)N(C)C)CC1)S(=O)(=O)c1c(C)cc(OC)c(C)c1C (centres unmarked)
64

// lookup inhibition at 10 µM for COc1ccc(S(=O)(=O)N2CCCCC2COCC(=O)NCC2CCC(C(c3cccs3)N(C)C)CC2)cc1OC (centres unmarked)
-23

# input compound: COc1cc(C)c(S(=O)(=O)N2CCC(OCC(=O)NCC3CCC(C(c4ccccc4)N(C)C)CC3)CC2)c(C)c1C (centres unmarked) ; wanted: its inhibition at 10 µM
11

Respectfully, I request inhibition at 10 µM for each entry included below.
1. COc1ccc(S(=O)(=O)N2CCCCC2CCOCC(=O)NC2CCC(C(c3cccc(F)c3)N(C)C)CC2)cc1 (centres unmarked)
2. COc1ccc(S(=O)(=O)N2CCCCC2CCOCC(=O)NCC2CCC(C(c3cccs3)N(C)C)CC2)cc1 (centres unmarked)
3. COc1cc(C)c(S(=O)(=O)N2CCCC2COCC(=O)NC2CCC(C(CCc3ccccc3)N3CCOCC3)CC2)c(C)c1 (centres unmarked)
4. O=C(COC1CCCN(S(=O)(=O)c2c(Cl)cc(Cl)cc2Cl)C1)NCC1CCC(C(c2ccccc2)N2CCOCC2)CC1 (centres unmarked)

[40, 49, 93, 2]

Please state inhibition at 10 µM for every compound in the list that follows.
1. Cc1ccc(S(=O)(=O)N2CCC(OCC(=O)NC3CCC(C(c4cccs4)N(C)C)CC3)C2)cc1 (centres unmarked)
2. COc1cc(C)c(S(=O)(=O)N2CCCC(OCC(=O)NCC3CCC(C(CCc4ccccc4)N4CCOCC4)CC3)C2)c(C)c1 (centres unmarked)
3. O=C(COCC1CCCN(S(=O)(=O)c2c(Cl)cc(Cl)cc2Cl)C1)NC1CCC(C(c2ccccc2)N2CCOCC2)CC1 (centres unmarked)
4. CN(C)C(c1ccccc1)C1CCC(NC(=O)COCCN(C)S(=O)(=O)c2c(Cl)cccc2Cl)CC1 (centres unmarked)
5. COc1cc(C)c(S(=O)(=O)N2CCC(CCOCC(=O)NCC3CCC(C(c4cccs4)N(C)C)CC3)CC2)c(C)c1C (centres unmarked)

1. 5
2. 92
3. -4
4. 79
5. 15
